Target: T1, human VEGF (hVEGF) (human, UniProt P15692 181-395);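 also: fab variants flowed over hVEGF immobilized on a CM5 chip, rate constants from a one-to-one Langmuir fit, Kd taken as koff over kon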
T1 construct: also called VEGF-A
T1 sequence: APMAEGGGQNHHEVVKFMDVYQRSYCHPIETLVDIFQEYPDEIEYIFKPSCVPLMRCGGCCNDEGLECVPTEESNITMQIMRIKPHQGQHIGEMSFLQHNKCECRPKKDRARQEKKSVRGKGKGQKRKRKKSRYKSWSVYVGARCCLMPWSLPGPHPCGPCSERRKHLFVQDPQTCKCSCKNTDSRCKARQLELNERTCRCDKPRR
Test: SPR
Hi there, I'd appreciate the recorded kon for every entry that follows.
# output: number + unit

Looking up HCLC3 (Fab, V domains shown, Fab) VH: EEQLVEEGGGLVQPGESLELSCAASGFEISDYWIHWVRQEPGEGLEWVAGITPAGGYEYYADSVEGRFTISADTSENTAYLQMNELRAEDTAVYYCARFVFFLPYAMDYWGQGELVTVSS VL: DIQMTQSPESLSASVGDEVTITCRASQDVSTAVAWYQQKPGEAPKLLIYSASFLYSGVPSRFSGSGSGTDFTLTISSLQPEDAATYYCQQGYGAPFTFGQGTKVEIK , I found its kon recorded as 1.84e+06 M⁻¹ s⁻¹

Dear colleague, could you please provide kon for the binders listed below?
1. R19HCLC4 (Fab, V domains shown, Fab) VH: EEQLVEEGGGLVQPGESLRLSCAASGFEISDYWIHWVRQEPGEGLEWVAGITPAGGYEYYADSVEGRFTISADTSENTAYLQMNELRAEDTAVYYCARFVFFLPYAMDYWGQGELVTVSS VL: DIQMTQSPSSLSASVGDEVTITCRASQDVSTAVAWYQQKPGKAPKLLIYSASFLYSGVPSRFSGSGSGTDFTLTISSLQPEDAATYYCQQGYGAPFTFGQGTKVEIK
2. HCLC5 (Fab, V domains shown, Fab) VH: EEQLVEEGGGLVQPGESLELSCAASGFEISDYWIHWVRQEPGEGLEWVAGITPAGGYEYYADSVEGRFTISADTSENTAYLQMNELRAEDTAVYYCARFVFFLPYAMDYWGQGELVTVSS VL: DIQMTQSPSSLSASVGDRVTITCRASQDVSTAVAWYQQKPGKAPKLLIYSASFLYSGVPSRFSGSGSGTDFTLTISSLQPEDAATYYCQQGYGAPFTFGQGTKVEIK

1: 284000 M⁻¹ s⁻¹; 2: 1.81e+06 M⁻¹ s⁻¹
